test: Plasma protein binding by rapid equilibrium dialysis (RED) in K3-EDTA plasma from donors; assay type: in vitro ADME, human; details: human, plasma, human plasma, RED (abstract)
ATTRIBUTE MEASURED: fraction unbound at 8 h
I'd appreciate a reply containing only the number, no unit.

Q: Any idea what fraction unbound at 8 h was measured for `COc1ccc2[nH]c3c(c2c1)CCN[C@]31CS[C@@H]2c3c(OC(C)=O)c(C)c4c(c3[C@H](COC1=O)N1[C@@H]2[C@H]2c3c(cc(C)c(OC)c3O)C[C@@H]([C@@H]1O)N2C)OCO4` ?
A: 0.004

---

experiment: Plasma protein binding by rapid equilibrium dialysis (RED) in K3-EDTA plasma from donors; format: in vitro ADME, human; conditions: human, fresh K3-EDTA plasma diluted 1:1 with PBS, diluted fresh plasma (1:1 with PBS), 100 ng/mL, RED 8 hours 37°C; read-out: mean percent unbound
ATTRIBUTE MEASURED: fraction unbound at 8 h, 100 ng/mL
I'd appreciate a reply containing only the number, no unit.

Q: Any idea what fraction unbound at 8 h, 100 ng/mL was measured for `COc1ccc2[nH]c3c(c2c1)CCN[C@]31CS[C@@H]2c3c(OC(C)=O)c(C)c4c(c3[C@H](COC1=O)N1[C@@H]2[C@H]2c3c(cc(C)c(OC)c3O)C[C@@H]([C@@H]1O)N2C)OCO4` ?
A: 0.00668
